# target.system: FTase (Bos taurus, UniProt P29702+P49355)
# Construct: bovine brain by inference from the cited Moores et al. 1991
# protocol.summary: Inhibition of FTase-mediated prenylation (in vitro prenylation assay)
# measurement.conditions: Table 1; partially purified FTase, 3 μM recombinant H-ras, 440 nM [3H]FPP, 15 min 37° C
pIC50: −log10 of the molar value.
recorded.endpoint: pIC50

>>> value_reported("CCOC(=O)[C@H](CCSC)NC(=O)C(/C=C/[C@@H](/C=C/C(N)CS)Cc1ccccc1)C(C)C (some centres unmarked) [PD351]")
6.49
>>> value_reported("CSCC[C@H](NC(=O)C(Cc1ccccc1)NC[C@@H](/C=C/C(N)CS)C(C)C)C(=O)O (some centres unmarked) [PA041]")
8.60
>>> value_reported("COC(=O)[C@H](CCSC)NCc1cc(C/C=C/[C@@H](N)CS)ccc1-c1ccccc1 [PM031]")
6.94

1 = COC(=O)[C@H](CCSC)NC(=O)C(Cc1ccccc1)NC[C@@H](/C=C/C(N)CS)C(C)C (some centres unmarked) [PA091]
2 = CSCC[C@H](NC(=O)C(/C=C/[C@@H](/C=C/C(N)CS)C(C)C)C(C)C)C(=O)O (some centres unmarked) [PD341]
3 = COC(=O)[C@H](CCSC)NC(=O)c1cc(C/C=C/C(N)CS)ccc1-c1ccsc1 (some centres unmarked) [PM192]
4 = CSCC[C@H](NC(=O)C(/C=C/C(/C=C/CCS)C(C)C)Cc1ccccc1)C(=O)O (single isomer, unassigned) [PD112]
Request: Rank order required: pIC50, descending. Kindly provide the labels arranged according to the requested ordering.
Result: 2, 1, 3, 4

====

# target.system: FTase (Bos taurus, UniProt P29702+P49355)
# Construct: bovine brain by inference from the cited Moores et al. 1991
# protocol.summary: Inhibition of FTase-mediated prenylation (in vitro prenylation assay)
# measurement.conditions: Table 1; partially purified FTase, 3 μM recombinant H-ras, 440 nM [3H]FPP, 15 min 37° C
# Excerpt: Nanomolar concentrations of the indicated compounds were sufficient to inhibit farnesylation of ras proteins in vitro. For screening candidate compounds useful for the treatment of ras-associated tumors, the FTase assay is preferred. […] Substitutions which confer GGTase specificity as taught herein also produced potent inhibitors of GGTase.
pIC50: −log10 of the molar value.
recorded.endpoint: pIC50

Example entries begin here.
>>> value_reported("COC(=O)[C@H](CCSC)NC(=O)C(Cc1cccs1)NC[C@@H](/C=C/C(N)CS)C(C)C (some centres unmarked)")
6.99
>>> value_reported("CSCC[C@H](NC(=O)C(Cc1cccs1)NC[C@@H](/C=C/C(N)CS)C(C)C)C(=O)O (some centres unmarked)")
8.44
>>> value_reported("CSCC[C@H](NC(=O)c1cc(C/C=C/C(N)CS)ccc1-c1cccc2ccccc12)C(=O)O (some centres unmarked)")
7.52

1 = CSCC[C@H](NC(=O)c1cc(C/C=C/C(N)CS)ccc1-c1ccsc1)C(=O)O (some centres unmarked)
2 = CSCC[C@H](NC(=O)c1cc(C/C=C/C(N)CS)ccc1-c1ccco1)C(=O)O (some centres unmarked)
3 = CC(C)[C@@H](/C=C\C(Cc1ccccc1)C(=O)NC(CO)C(=O)O)/C=C/C(N)CS (some centres unmarked)
4 = CC(C)C(/C=C/[C@@H](/C=C/C(N)CS)C(C)C)C(=O)N[C@H]1CCOC1=O (some centres unmarked)
Request: Arrange the 4 compounds by rising pIC50, starting with the smallest. Please list the labels in the order you were asked to rank them.
Result: 4, 1, 2, 3
(4: 7.28, 1: 7.77, 2: 9.52, 3: 10.00)
